# target.desc: rat FPT (Rattus norvegicus, UniProt Q02293+Q04631)
# Construct: made in house; host or cells: Sf9 insect cells
# assay.remarks: PFT Inhibitory Activity (protein farnesyl transferase)
# Format: biochemical
# stated.conditions: HEPES buffer pH 7.4 with 5 mM potassium phosphate; 30° C., 30 minutes; read-out: IC50 (μM) Hepes + 5 mM Phosphate
measured.property: IC50 (µM)

• C=CCc1c(OC(Cn2ccnc2)c2ccccc2)ccc2c(-c3ccccc3)cc(=O)oc12 (stereo not drawn) [Example 12] = 0.64
• Cn1c(=O)cc(-c2cccc(Cl)c2)c2cc(OCc3c[nH]cn3)ccc21 [Example 3] = 3.6
• Cn1c(=O)cc(-c2cccc(Cl)c2)c2cc(OC(Cn3ccnc3)c3ccccc3)ccc21 (stereo not drawn) [Example 1] = 0.068
• O=c1cc(-c2ccc(Cl)cc2)c2ccc(OC(Cn3ccnc3)c3ccccc3)cc2o1 (stereo not drawn) [Example 9] = 1.6
• Cn1c(=O)cc(-c2cccc(Cl)c2)c2ccc(OC(Cn3ccnc3)c3ccccc3)cc21 (stereo not drawn) [Example 2] = 0.99

1: Cc1cccc(-c2cc(=O)oc3cc(OC(Cn4ccnc4)c4ccccc4)ccc23)c1 (stereo not drawn) [Example 7]
2: Cc1ccccc1-c1cc(=O)oc2cc(OC(Cn3ccnc3)c3ccccc3)ccc12 (stereo not drawn) [Example 8]
3: O=c1cc(-c2ccccc2Cl)c2ccc(OC(Cn3ccnc3)c3ccccc3)cc2o1 (stereo not drawn) [Example 10]
// sort entries: IC50, high to low The reply should contain the labels ordered as requested.
1, 2, 3
(1: 1.4 µM, 2: 0.92 µM, 3: 0.29 µM)
